All figures here come from ChEMBL document CHEMBL4052814.

# ASSAY_TEXT: Protein binding in cynomolgus monkey plasma at 5 uM incubated for 4 hrs measured by LC-MS/MS method
# Format: ADME, cell-free, Macaca fascicularis
# CONDITION_SET: read-out: PPB (converted)
REPORTED_METRIC: fraction unbound at 4 h, 5 µM
Answers are plain numbers.

INSERT INTO assay_data (given_smiles, endpoint_result) VALUES
  ('CNC(=O)N1CCc2c(c(N3CCCc4cc(-c5cnn(C)c5)c(C(F)F)cc43)nn2C2CCOCC2)C1', 0.22);

Now consider the entry below.
Exercise: # lookup: fraction unbound at 4 h, 5 µM of CC(=O)N1CCc2c(c(N3CCCc4cc(-c5cnn(C)c5)c(C(F)F)cc43)nn2C2CCOCC2)C1
Solution: 0.21

* * *

Answer each item with its documented pIC50.
# TARGET_UNDER_TEST: CREB-binding protein (Homo sapiens)
# Sequence (Q92793 whole entry): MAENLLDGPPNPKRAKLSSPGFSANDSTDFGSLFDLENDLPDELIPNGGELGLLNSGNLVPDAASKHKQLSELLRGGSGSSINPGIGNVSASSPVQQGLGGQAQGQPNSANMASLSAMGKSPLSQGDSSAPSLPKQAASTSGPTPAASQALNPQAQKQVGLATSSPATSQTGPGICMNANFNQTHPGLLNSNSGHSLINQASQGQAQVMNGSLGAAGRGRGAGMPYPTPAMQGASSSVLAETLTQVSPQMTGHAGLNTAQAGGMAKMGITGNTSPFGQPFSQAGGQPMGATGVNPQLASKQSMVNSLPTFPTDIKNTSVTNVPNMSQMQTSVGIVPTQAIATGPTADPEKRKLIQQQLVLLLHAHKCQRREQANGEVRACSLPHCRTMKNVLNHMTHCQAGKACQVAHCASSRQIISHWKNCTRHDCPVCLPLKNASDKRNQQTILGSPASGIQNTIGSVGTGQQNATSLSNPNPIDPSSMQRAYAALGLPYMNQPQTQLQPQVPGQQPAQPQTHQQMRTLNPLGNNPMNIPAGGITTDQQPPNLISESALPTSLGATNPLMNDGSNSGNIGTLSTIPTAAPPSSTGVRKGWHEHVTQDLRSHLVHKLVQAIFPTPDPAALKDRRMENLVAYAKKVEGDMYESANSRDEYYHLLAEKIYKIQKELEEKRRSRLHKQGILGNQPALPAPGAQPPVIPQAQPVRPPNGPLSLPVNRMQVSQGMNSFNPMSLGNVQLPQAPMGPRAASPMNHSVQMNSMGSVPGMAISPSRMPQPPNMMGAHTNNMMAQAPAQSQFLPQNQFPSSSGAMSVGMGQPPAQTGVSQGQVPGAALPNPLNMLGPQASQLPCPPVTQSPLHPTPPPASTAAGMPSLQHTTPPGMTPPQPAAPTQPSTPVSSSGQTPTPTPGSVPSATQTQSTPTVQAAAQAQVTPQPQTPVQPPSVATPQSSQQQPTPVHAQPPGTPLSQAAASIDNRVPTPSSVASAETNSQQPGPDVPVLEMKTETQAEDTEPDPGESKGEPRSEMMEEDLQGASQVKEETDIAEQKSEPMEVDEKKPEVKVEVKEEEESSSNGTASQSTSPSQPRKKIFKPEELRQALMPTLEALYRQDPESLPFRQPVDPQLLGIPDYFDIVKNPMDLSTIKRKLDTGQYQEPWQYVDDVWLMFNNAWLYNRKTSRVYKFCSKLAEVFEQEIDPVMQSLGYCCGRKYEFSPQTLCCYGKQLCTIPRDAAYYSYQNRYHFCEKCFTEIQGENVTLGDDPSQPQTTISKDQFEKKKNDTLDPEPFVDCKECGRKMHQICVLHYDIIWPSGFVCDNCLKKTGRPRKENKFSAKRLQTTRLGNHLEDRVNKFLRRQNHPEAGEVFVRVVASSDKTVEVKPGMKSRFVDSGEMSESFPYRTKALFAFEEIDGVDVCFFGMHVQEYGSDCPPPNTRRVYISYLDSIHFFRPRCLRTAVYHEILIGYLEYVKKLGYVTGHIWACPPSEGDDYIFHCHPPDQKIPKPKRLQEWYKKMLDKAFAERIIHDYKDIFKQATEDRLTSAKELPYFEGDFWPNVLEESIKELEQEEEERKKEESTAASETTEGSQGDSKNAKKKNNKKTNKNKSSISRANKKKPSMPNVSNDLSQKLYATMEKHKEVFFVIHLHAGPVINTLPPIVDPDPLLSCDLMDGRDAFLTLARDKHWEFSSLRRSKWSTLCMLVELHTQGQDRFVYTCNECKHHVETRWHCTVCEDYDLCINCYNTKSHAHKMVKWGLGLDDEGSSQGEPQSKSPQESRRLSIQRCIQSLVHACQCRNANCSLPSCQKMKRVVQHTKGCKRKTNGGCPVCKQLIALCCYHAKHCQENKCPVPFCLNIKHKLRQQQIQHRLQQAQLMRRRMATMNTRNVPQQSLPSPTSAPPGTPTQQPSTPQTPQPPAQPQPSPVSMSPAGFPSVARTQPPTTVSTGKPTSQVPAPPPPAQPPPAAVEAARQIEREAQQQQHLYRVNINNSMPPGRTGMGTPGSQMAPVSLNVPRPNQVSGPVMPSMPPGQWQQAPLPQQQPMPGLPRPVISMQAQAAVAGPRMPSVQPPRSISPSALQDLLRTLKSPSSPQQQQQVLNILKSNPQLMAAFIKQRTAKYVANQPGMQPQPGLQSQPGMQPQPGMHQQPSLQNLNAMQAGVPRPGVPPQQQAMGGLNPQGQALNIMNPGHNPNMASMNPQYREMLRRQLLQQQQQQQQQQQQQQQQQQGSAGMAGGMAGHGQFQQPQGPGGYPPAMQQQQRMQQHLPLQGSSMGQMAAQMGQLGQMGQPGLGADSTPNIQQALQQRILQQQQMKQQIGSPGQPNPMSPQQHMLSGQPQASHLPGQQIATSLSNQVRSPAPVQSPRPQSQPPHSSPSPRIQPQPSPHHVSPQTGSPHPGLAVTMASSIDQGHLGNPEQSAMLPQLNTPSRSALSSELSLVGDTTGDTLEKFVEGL
# ASSAY_TEXT: Inhibition of Halo-tagged histone H3.3 binding to NanoLuc luciferase conjugated human CBP expressed in HEK293 cells after overnight incubation by BRET assay
# Format: cell-based
One number for each entry, as −log10 of the molar value.

INSERT INTO measurements (given_smiles, reported_metric, endpoint_result) VALUES
  ('CC(=O)N1CCc2c(c(N3CCCc4cc(-c5cnn(C)c5)ccc43)nn2[C@H]2CCOC2)C1', 'pIC50', 6.49),
  ('CC(=O)N1CCc2c(c(N3CCCc4cc(-c5cnn(C)c5)c(C(F)F)cc43)nn2C2CCOCC2)C1', 'pIC50', 7.92),
  ('CC(=O)N1CCc2c(c(N3CCCc4cc(-c5cnn(C)c5)c(C(F)(F)F)cc43)nn2[C@H]2CCOC2)C1', 'pIC50', 7.41),
  ('CCNC(=O)N1CCc2c(c(N3CCCc4cc(-c5cnn(C)c5)c(C(F)F)cc43)nn2C2CCOCC2)C1', 'pIC50', 6.28),
  ('CC(=O)N1CCc2c(c(N3CCCc4cc(-c5cnn(C)c5)c(C(F)F)cc43)nn2C2CCCCC2)C1', 'pIC50', 7.35);

# per-item lookup of pIC50; items listed below
1. CC(=O)N1CCc2c(c(N3CCCc4cc(-c5cnn(C)c5)c(C(F)F)cc43)nn2C2CCN(S(C)(=O)=O)CC2)C1
2. CC(=O)N1CCc2c(c(N3CCCc4cc(-c5cnn(C)c5)c(C(F)F)cc43)nn2C2CCNCC2)C1
3. CN(C)C(=O)N1CCc2c(c(N3CCCc4cc(-c5cnn(C)c5)c(C(F)F)cc43)nn2C2CCOCC2)C1

Solution:
7.34
6.16
5.43

* * *

# TARGET_UNDER_TEST: Cytochrome P450 3A4 (Homo sapiens)
# Sequence (P08684 whole entry): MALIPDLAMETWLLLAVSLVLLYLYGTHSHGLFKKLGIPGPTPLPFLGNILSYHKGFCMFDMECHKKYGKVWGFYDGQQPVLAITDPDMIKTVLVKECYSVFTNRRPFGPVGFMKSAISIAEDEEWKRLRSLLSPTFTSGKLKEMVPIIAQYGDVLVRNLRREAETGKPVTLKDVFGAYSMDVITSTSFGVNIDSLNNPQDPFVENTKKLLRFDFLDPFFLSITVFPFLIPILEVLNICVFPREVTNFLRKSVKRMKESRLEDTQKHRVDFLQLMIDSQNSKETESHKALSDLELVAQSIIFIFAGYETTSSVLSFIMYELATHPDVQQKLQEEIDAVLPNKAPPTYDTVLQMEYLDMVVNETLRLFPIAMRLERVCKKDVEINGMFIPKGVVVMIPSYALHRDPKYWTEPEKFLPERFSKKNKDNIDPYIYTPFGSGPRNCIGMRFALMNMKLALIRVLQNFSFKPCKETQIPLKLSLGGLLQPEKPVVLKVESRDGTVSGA
pIC50: −log10 of the molar value.
REPORTED_METRIC: pIC50

Exercise: Recorded pIC50 for CNC(=O)N1CCc2c(c(N3CCCc4cc(-c5cnn(C)c5)c(C(F)F)cc43)nn2C2CCOCC2)C1 with Cytochrome P450 3A4 (Homo sapiens), please?
Solution: < 5.00

* * *

Hi there, I'd appreciate the recorded Vd for every entry that follows.
# ASSAY_TEXT: Volume of distribution at steady state in CD-1 mouse at 1 mg/kg, iv or 5 mg/kg, po by LC-MS/MS method
# Type: ADME, organism-based
# CONDITION_SET: in vivo, read-out: Vdss
Please answer using a numeric value trailed by its unit.

INSERT INTO assay_data (given_smiles, reported_metric, endpoint_result) VALUES
  ('CC(=O)N1CCc2c(c(N3CCCc4cc(-c5cnn(C)c5)c(C(F)F)cc43)nn2C2CCOCC2)C1', 'Vd', '0.81 L/kg');

Exercise: Which Vd is reported for this compound? CNC(=O)N1CCc2c(c(N3CCCc4cc(-c5cnn(C)c5)c(C(F)F)cc43)nn2C2CCOCC2)C1
Solution: 0.6 L/kg
